The reported measurements were obtained from ChEMBL document CHEMBL1201862.

Test system: DMS-273
Assay: NCI tumour cell line growth inhibition, 48 h
Active and inactive are the calls of the source. Cut-off read from the data, not from the text of the source: active = GI50 up to about 1.1 µM and inactive = higher.
Parameter GI50: see the listing below.
MEASURED_METRIC: GI50

* O=C(O)C1CCc2nnc(-c3ccccc3)n21 (stereo not given) | > 100 µM (inactive)
* C=C1C(=O)C23[C@H](O)C1CC[C@H]2[C@]12COC3(O)[C@@H](O)[C@@H]1C(C)(C)CC[C@@H]2O | 13.6 µM (inactive)
* O=C1Nc2ccc([N+](=O)[O-])cc2/C1=N/Nc1ccc([N+](=O)[O-])cc1 | 10.7 µM (inactive)
* CC(=O)n1c2c(c(=O)n1-c1ccccc1)[S+]([O-])CCC2 (stereo not given) | 23.2 µM (inactive)
* Cc1cc2c(c3oc(C(O)(CO)C4CO4)cc(=O)c13)C(=O)c1c(O)cccc1C2=O (stereo not given) | < 0.01 µM (active)
* COc1ccc2[nH]c3c(C)c4ccncc4c(C)c3c2c1 | 0.218 µM (active)
* O=C(O/N=C1/CCC/C1=C\c1ccccc1)c1ccc([N+](=O)[O-])cc1 | > 100 µM (inactive)
* COC1OC(CO)C(O)C(OC(C)=O)C1NC(=O)N(CCCl)N=O (stereo not given) | > 100 µM (inactive)
* C=C(/C=C/C=C(\CO)CCC=C(C)C)[C@H]1CCC2([C@H](CCCO)/C(=C(/C)C=O)CC[C@]2(C)O)[C@H]1O (stereo not given in full) | > 100 µM (inactive)
* CN1C2(c3ccccc3)C(C(=O)c3ccccc3)=C(C(=O)c3ccccc3)C1(c1ccccc1)c1c(-c3ccccc3)sc(-c3ccccc3)c12 | > 100 µM (inactive)
* COc1ccc(NC(=O)CSc2nnc(-c3ccc(NC(C)=O)cc3)o2)cc1 | 19.3 µM (inactive)
* Cc1cc(Cl)ccc1N1C(=O)C(=O)C(c2nc3ccccc3s2)C(=O)C1=O | > 100 µM (inactive)
* CC1=NN(C(=O)Cc2ccccc2)C(=O)/C1=C\c1cccc(O)c1 | > 100 µM (inactive)
* O=C1NC(=O)C(CCO)(c2ccccc2)C(=O)N1 | > 100 µM (inactive)
* COc1ccccc1-c1cc(O)c2cc3c(cc2n1)OCO3 | 19.6 µM (inactive)
* CC(=O)SCCC1c2[nH]c3ccccc3c2CCN1O (stereo not given) | 86.1 µM (inactive)
* O=C1CCCCC2N(C(c3ccccc3)c3ccccc3)CC[C@@]12c1ccccc1.O=C1CCCC[C@H]2N(C(c3ccccc3)c3ccccc3)CC[C@@]12c1ccccc1 (stereo not given in full) | > 10 µM (inactive)
* Nc1ncnc2c(C3OC(CO)C(O)C3O)c[nH]c12 (stereo not given) | 0.01 µM (active)
* COc1ccccc1-n1c(NN)nc2ccc(Br)cc2c1=O | 35.1 µM (inactive)
* CC[N+](C)(C)c1ccc(C(=C2C=CC(=[N+](C)C)C=C2)c2ccc(N(C)C)cc2)cc1 | 6.4 µM (inactive)

###

Quick note: these are GI50 numbers for system: HCT-15
MEASURED_METRIC: GI50

* COc1cc2c(=O)cnoc2cc1O | > 100 µM
* Oc1c(Br)ccc2cccnc12 | 0.948 µM
* C[C@]12CCc3nonc3C1CC[C@@H]1C2CC[C@]2(C)C(=O)/C(=N\O)CC12 (stereo partly specified) | > 100 µM
* CSc1nc(Br)nc2c1ncn2C1CC(Oc2ccc(C)cc2)C(COc2ccc(C)cc2)O1 (stereo unspecified) | > 100 µM
* CCCCCCCCCCCC(=O)c1c(O)cc(C)oc1=O | 41.7 µM
* C/C(=N\Nc1nc2ccccc2s1)c1ccncn1 | 0.661 µM

###

Test system: M14
Test: NCI tumour cell line growth inhibition, 48 h
Calls of active or inactive are those of the source. Rule as the data show it: active = GI50 up to about 1.1 µM and inactive = higher. Non-standard residues stand in square brackets, D forms with d. Residues, ends and D or L forms follow the SMILES beside them. ξ: configuration not given here. *: point of attachment. NMeF = CN[C@@H](Cc1ccccc1)C(=O)O; NMeN = CN[C@@H](CC(N)=O)C(=O)O; NMeV = CN[C@H](C(=O)O)C(C)C; ξNMeV = CNC(C(=O)O)C(C)C; Boc = CC(C)(C)OC(=O)*; ξNMeA = CNC(C)C(=O)O; ξV = CC(C)C(N)C(=O)O
Labels: true (1) = active, false (0) = inactive

- COc1ccc(/C=C\c2cc(OC)c(OC)c(OC)c2)cc1OC(=O)CC(N)C(=O)O (stereo not drawn): true (1)
- CCNc1nc(N)c(C(=O)c2ccc(Cl)cc2)s1: false (0)
- COc1cc2c(=O)cnoc2cc1O: false (0)
- COC(=O)C(C)N(C)C(=O)[C@H](CC(N)=O)N(C)C(=O)[C@@H]1CCCN1C(=O)[C@H](C(C)C)N(C)C(=O)C(C(C)C)N(C)C(=O)[C@H](Cc1ccccc1)N(C)C(=O)C(NC(=O)OC(C)(C)C)C(C)C (stereo partly drawn) (Boc-[ξV][NMeF][ξNMeV][NMeV]P[NMeN][ξNMeA]-OMe): false (0)
- Cc1cccc2nc3cc(O)cc(O)c3c(O)c12: false (0)
- O=C1CCCCC2N(C(c3ccccc3)c3ccccc3)CC[C@@]12c1ccccc1.O=C1CCCC[C@H]2N(C(c3ccccc3)c3ccccc3)CC[C@@]12c1ccccc1 (stereo partly drawn): false (0)
- CCSc1[nH]c(NC(=S)NC(=O)c2ccccc2Cl)c(C(N)=O)c1C(N)=O: false (0)
- CCC(C)c1cnc(CC(C)C)c(=O)[nH]1 (stereo not drawn): false (0)

###

Tested on: T47D
Test: NCI tumour cell line growth inhibition, 48 h
The source made the active and inactive calls. No stated cut-off is given here; in the data, active = GI50 up to about 1.1 µM and inactive = higher.
MEASURED_METRIC: GI50

* Nc1ncnc2nc(N3CCN(CCO)CC3)[nH]c12 | > 100 µM (inactive)
* CN(C)CCOc1ccc(-c2c(Oc3ccc(Cl)cc3)c(=O)oc3ccccc23)cc1 | 8.87 µM (inactive)
* CCOC(=O)C(=Cn1c(=S)[nH]c2ccc([N+](=O)[O-])cc21)C(=O)OCC | 59.6 µM (inactive)
* Cc1cc2c(cc1C)[n+]([O-])c(C(=O)/C=C/c1ccccc1[N+](=O)[O-])c(C)[n+]2[O-] | > 77.3 µM (inactive)
* O=C(Nc1ccccc1)OCCN=C1c2ccccc2C(Br)C(Br)c2ccccc21 (stereo unspecified) | 8.69 µM (inactive)
* COC(=O)/C(=C/c1ccc(OC)cc1)c1cc(OC)c(OC)c(OC)c1 | 7.13 µM (inactive)
* Oc1c(Cl)c(Cl)c(Cl)c(Cl)c1Cl | 20 µM (inactive)
* CC1(C)Oc2ccc3c(=O)c4ccccc4oc3c2C1C(=O)O (stereo unspecified) | > 100 µM (inactive)
* NC(=O)c1ccc(NS(=O)(=O)c2ccc(N)cc2)nc1 | > 100 µM (inactive)
* COc1nc2c(c(=O)n1C)NC(C(O)C(O)CO)C=N2 (stereo unspecified) | > 10 µM (inactive)
* O=C(NCCCl)NCc1ccccc1 | > 100 µM (inactive)

###

Parameter GI50: see the listing below.
System: MDA-N
Assay: NCI tumour cell line growth inhibition, 48 h
The source made the active and inactive calls. Cut-off read from the data, not from the text of the source: active = GI50 up to about 1.1 µM and inactive = higher. Non-standard residues stand in square brackets, D forms with d. Residues, ends and D or L forms follow the SMILES beside them. ξ: configuration not given here. *: point of attachment. NMeF = CN[C@@H](Cc1ccccc1)C(=O)O; NMeN = CN[C@@H](CC(N)=O)C(=O)O; NMeV = CN[C@H](C(=O)O)C(C)C; ξNMeV = CNC(C(=O)O)C(C)C; Boc = CC(C)(C)OC(=O)*; ξNMeA = CNC(C)C(=O)O; ξV = CC(C)C(N)C(=O)O
MEASURED_METRIC: GI50

- C/C=C/C(C#N)(/C=C/c1ccccc1)OP1(=O)OC(c2ccccc2)C(C)N1C (stereo not given): 20.3 µM (inactive)
- Cc1cc2oc(C)c(S(=O)(=O)NC(=O)Nc3ccc(Cl)cc3)c(=O)c2c(=O)o1: > 100 µM (inactive)
- COC(=O)C(C)N(C)C(=O)[C@H](CC(N)=O)N(C)C(=O)[C@@H]1CCCN1C(=O)[C@H](C(C)C)N(C)C(=O)C(C(C)C)N(C)C(=O)[C@H](Cc1ccccc1)N(C)C(=O)C(NC(=O)OC(C)(C)C)C(C)C (stereo not given in full) (Boc-[ξV][NMeF][ξNMeV][NMeV]P[NMeN][ξNMeA]-OMe): 22.6 µM (inactive)
- Cc1c(C(=O)OCc2ccccc2)[n+]([O-])c2cc(Cl)c(Cl)cc2[n+]1[O-]: 20.6 µM (inactive)
- N#Cc1c(-c2ccccc2)c(C#N)c(=S)n(C2OCC(O)C(O)C2O)c1N (stereo not given): > 100 µM (inactive)
- CCOP(=O)(CN=C(c1ccccc1)c1ccccc1)OCC: > 100 µM (inactive)
- C#CC1=CC(=O)C(OC)=CC1=O: 19.1 µM (inactive)
- COC(=O)C(/C(=N/N)C(=O)Nc1cc(Cl)c(Cl)cc1Cl)c1nc2ccc(Cl)cc2nc1O (stereo not given): > 100 µM (inactive)
- CC(C)N1[C@@H]2CCCC[C@H]2N(C(C)C)P1(=O)C(=O)/C=C/c1ccccc1: 1.83 µM (inactive)
- Cc1cnccc1/N=N/c1ccc(N(C)C)cc1: 8.32 µM (inactive)
- CCN(CC(COc1ccc2c(c1)[n+]([O-])nc(N)[n+]2[O-])OC(C)=O)C(C)=O (stereo not given): 85.7 µM (inactive)
- CN(C)c1ccc(C(c2ccc(N(C)C)cc2)c2ccc([N+](=O)[O-])cc2)cc1: > 100 µM (inactive)
- COc1ccc(N2C(=O)/C(=C\c3cccc(Oc4ccccc4)c3)SC2c2ccccc2)cc1 (stereo not given): 29.3 µM (inactive)
- O=[N+]([O-])c1cccc2nccc(NCC(O)CO)c12 (stereo not given): 17.1 µM (inactive)
- CC(C)(C)OC(=O)N1C(OP(=O)(Oc2ccccc2)Oc2ccccc2)=CSc2ccccc21: 34 µM (inactive)
- CC(C)C1=CC23CCC4C(C)(C(=O)O)CCCC4(C)C2CC1C1C(=O)N(c2ccccc2N2C(=O)C4C5CC6C7(C)CCCC(C)(C(=O)O)C7CCC6(C=C5C(C)C)C4C2=O)C(=O)C13 (stereo not given): 5 µM (inactive)
- CC(C)(C)C1=C(Br)C(Br)(C(C)(C)C)OP1(=O)c1ccccc1 (stereo not given): > 100 µM (inactive)
- CCOC(=O)c1cn(-c2ccccc2)c(=S)n2c1nc1ccccc12: 41.1 µM (inactive)
- Cc1ccc(S(=O)(=O)n2c3c(c4ccccc42)CCN2C[C@H]([C@H](C)Br)CC[C@@H]32)cc1: > 100 µM (inactive)
- CN(C)CC1CCC/C(=C\c2ccc(Cl)c(Cl)c2)C1=O (stereo not given): 3.42 µM (inactive)
